Provide the recorded MIC Staphylococcus aureus (GC 1131) for the entries that follow.
- Tested on: Staphylococcus sp.
- methodDescription: In vitro antibacterial evaluation: minimum inhibitory concentration (MIC), broth dilution method
- Format: cell-based
- measurementSetup: Staphylococcus aureus (GC 1131); 18 hours at 35° C.
I only need the number, in µg/mL, no unit after it.

Entry CC(c1ccccc1)C1NC(=O)CNC(=O)C(CO)NC(=O)C(C(O)C2CNC(=N)N2C2OC(CO)C(O)C(O)C2O)NC(=O)C(C(O)C2CNC(=N)N2)NC(=O)C(Cc2ccc(OC3OC(CO)C(OC4OC(COCc5ccc(Oc6ccccc6)cc5)C(O)C(O)C4O)C(O)C3O)cc2)NC1=O (centres unmarked) [Example 236] ; MIC Staphylococcus aureus (GC 1131) = 2

Entry CC(c1ccccc1)C1NC(=O)CNC(=O)C(CO)NC(=O)C(C(O)C2CNC(=N)N2C2OC(CO)C(O)C(O)C2O)NC(=O)C(C(O)C2CNC(=N)N2)NC(=O)C(Cc2ccc(OC3OC(CO)C(OC4OC(CO)C(OCC=C(c5ccccc5)c5ccccc5)C(O)C4O)C(O)C3O)cc2)NC1=O (centres unmarked) [Example 241a] ; MIC Staphylococcus aureus (GC 1131) = 2

Entry CC(C)CC(=O)OCC1OC(OC2C(CO)OC(Oc3ccc(CC4NC(=O)C(Cc5ccccc5)NC(=O)CNC(=O)C(CO)NC(=O)C(C(O)C5CNC(=N)N5C5OC(CO)C(O)C(O)C5O)NC(=O)C(C(O)C5CNC(=N)N5)NC4=O)cc3)C(O)C2O)C(O)C(O)C1O (centres unmarked) [Example 283c] ; MIC Staphylococcus aureus (GC 1131) = 32

Entry CC(c1ccccc1)C1NC(=O)CNC(=O)C(CO)NC(=O)C(C(O)C2CNC(=N)N2C2OC(CO)C(O)C(O)C2O)NC(=O)C(C(O)C2CNC(=N)N2)NC(=O)C(Cc2ccc(OC3OC(CO)C(OC4OC(COCC=C(c5ccccc5)c5ccccc5)C(O)C(O)C4O)C(O)C3O)cc2)NC1=O (centres unmarked) [Example 241] ; MIC Staphylococcus aureus (GC 1131) = 2

Entry CC(C)CCC(=O)OC1C(OC2C(CO)OC(Oc3ccc(CC4NC(=O)C(C(C)c5ccccc5)NC(=O)CNC(=O)C(CO)NC(=O)C(C(O)C5CNC(=N)N5C5OC(CO)C(O)C(O)C5O)NC(=O)C(C(O)C5CNC(=N)N5)NC4=O)cc3)C(O)C2O)OC(CO)C(O)C1O (centres unmarked) [Example 270a] ; MIC Staphylococcus aureus (GC 1131) = 4
